molecular target: ATP-dependent Clp protease proteolytic subunit (Bacillus subtilis (strain 168)) (UniProt P80244); test: qHTS Assay for Activators of ClpP; conditions: purified B. subtilis ClpP, FRET peptide cleavage, 20 min; series mostly up to 57.5 µM
The whole screen tested about 340,000 compounds, of which about 6,400 (1.9%) were called active. Not shown: some 4% with an inconclusive outcome. Calls come from the whole dose curve; as a rule, active = well fitted falling curve with a large enough effect; inconclusive = small, poorly fitted or top-dose-only effect; inactive = no such curve, though single readings can be large or run the other way. What follows is part of a selection rich in actives, with near analogues and random picks from the rest.
Pick from 1 = active, -1 = inactive when you respond.

These solved cases illustrate the format of a correct answer.
CC(=O)C1=C(O)C(=O)N(c2ccc(Br)cc2)C1c1ccc([N+](=O)[O-])cc1 (stereo not given): -1
CC1(C(=O)NS(=O)(=O)c2cccc(F)c2)CCN1C(=O)Cc1cc(F)ccc1F (stereo not given): -1
CCOc1cccc2cc(C(=O)OCC(=O)Nc3c(C)cccc3CC)c(=O)oc12: -1

Data request: Given `C=CCc1cccc2cc(C(=O)OCC)c(=O)oc12` , state the outcome it received in this test.
Data returned: 1

* * *

biological target: ATP-dependent Clp protease proteolytic subunit (Bacillus subtilis (strain 168)) (UniProt P80244); assay: qHTS Assay for Activators of ClpP; settings: purified B. subtilis ClpP, FRET peptide cleavage, 20 min; series mostly up to 57.5 µM
Among all 340,000 compounds or so, about 6,400 (1.9%) were called active. About 4% were inconclusive and are not listed. The call rests on the fitted dose curve; in most records, active means well fitted falling curve with a large enough effect; inconclusive means small, poorly fitted or top-dose-only effect; inactive means no such curve, though single readings can be large or run the other way. For the sample, actives were picked, then their nearest neighbours and some compounds at random.
Hi! Could you answer with just one of these? active, inactive

Cc1nn(Cc2ccccc2)c(Cl)c1C(=O)OC1CCOC1=O (stereo unspecified): inactive
O=[N+]([O-])c1cc(S(=O)(=O)N2CCCC2)ccc1NN=C1CCCC1: inactive

Data request: Tell me the assay call for `O=C(O)Cc1ccc(NCc2ccccc2Cl)cc1` please.
Data returned: active

Data request: Try O=C(OC1CCOC1=O)c1ccc(-c2nc3ccccc3s2)s1 (stereo unspecified) next.
Data returned: active

Data request: Param item: `CCOCCCNC(=O)c1cn(CC(C)C)c(=O)c2c1c1ccccc1n2C`
Data returned: active

Data request: Same lookup for `O=C(Nc1ccn(Cc2ccccc2)n1)c1n[nH]c([N+](=O)[O-])c1Cl` , please.
Data returned: active

Data request: Now give it for `Cc1cc2nc(-c3ccc(F)cc3)c(Cc3ccsc3)n2c(C)c1Br` too.
Data returned: inactive

Data request: How about this compound: COc1ccc(C(C(=O)NCc2ccccc2)n2c(=O)c(-c3ccccc3)nc3ccccc32)cc1 (stereo unspecified)
Data returned: active

* * *

target: ATP-dependent Clp protease proteolytic subunit (Bacillus subtilis (strain 168)); experiment: qHTS Assay for Activators of ClpP; note: the source files actives as falling curves though it sought activators and does not explain the sign; nearly all actives have a fitted effect of over 65% in size; settings: purified B. subtilis ClpP, FRET peptide cleavage, 20 min; series mostly up to 57.5 µM
Hit rate of the full screen: of about 340,000 compounds, about 6,400 (1.9%) were called active. Another 4% or so got no clear call; they are omitted. Calls come from the whole dose curve; as a rule, active = well fitted falling curve with a large enough effect; inconclusive = small, poorly fitted or top-dose-only effect; inactive = no such curve, though single readings can be large or run the other way. The full list was thinned out, with actives kept by preference.
Can you answer with just one of these options? active, inactive

Illustrative cases are given below, each with its answer.
O=C(Nc1ccc(N2CCOCC2)cc1)c1cccc2c(-c3ccc(F)c(F)c3)coc12: inactive
C/C=C/NNC(=O)Cc1ccc(OC)cc1: inactive
CCCCN(C(=O)c1ccc(C)o1)c1c(N)n(CCCC)c(=O)[nH]c1=O: inactive
CCCCn1c(N)c(N(CCC(C)C)C(=O)c2ccc(COc3ccccc3)o2)c(=O)[nH]c1=O: inactive
Cc1cccc(-c2nnc(SC(C)C(=O)Nc3ccccc3)n2C)c1 (stereo not given): inactive

Data request: Record lookup: outcome of this test for `COc1ccc(CCNC(=O)CSc2nc(-c3ccc(OC)c(OC)c3)ccc2C#N)cc1` ?
Data returned: active

Data request: Subsequent entry: `COc1ccc(CCNC(=O)CSc2nnc3ccc(-c4ccncc4)nn23)cc1`
Data returned: inactive

Data request: Note, next up: `CCc1nc2c(OCCOc3ccccc3)cccn2c1N(C=O)Cc1ccc(OC)cc1`
Data returned: inactive

Data request: Next molecule up: `COc1cccc(CNC(=O)CSc2c3c(nc4cc(Cl)ccc24)CCCC3)c1`
Data returned: inactive

Data request: What do you have for `COc1ccc(Br)c(Cn2c(C)c(C(=O)NCc3cccs3)sc2=O)c1` ?
Data returned: inactive

* * *

biological target: ATP-dependent Clp protease proteolytic subunit (Bacillus subtilis (strain 168)) (UniProt P80244); assay: qHTS Assay for Activators of ClpP; note: the source files actives as falling curves though it sought activators and does not explain the sign; nearly all actives have a fitted effect of over 65% in size; conditions: purified B. subtilis ClpP, FRET peptide cleavage, 20 min; series mostly up to 57.5 µM
The campaign covered roughly 340,000 compounds. About 6,400 (1.9%) were called active. Another 4% or so got no clear call; they are omitted. The call rests on the fitted dose curve; in most records, active means well fitted falling curve with a large enough effect; inconclusive means small, poorly fitted or top-dose-only effect; inactive means no such curve, though single readings can be large or run the other way. The list comes from a sample in which actives are over-represented; it also holds close analogues and randomly drawn compounds.
Hi! Could you answer with just one of these? Yes = active, No = inactive

// known answers, use as guide
CC(=O)NC(c1ccccc1)c1nc(-c2ccccc2C)cs1 (stereo not drawn): No
CCCC1OC23CCCCC2C(C#N)(C#N)C1(C#N)C(=N)O3 (stereo not drawn): Yes
CN1OC[C@@H]2CN(C(=O)c3ccc(-c4ccccc4)cc3)[C@H](c3ccc(-c4cccc(F)c4)cc3)C[C@@H]21: No
O=C(NCc1cccnc1)c1cn(-c2ccccc2)nc1-c1cccs1: No
Cc1ccc(-c2ccc(=O)n(Cc3ccc(F)cc3Cl)n2)cc1: No
CN(C)Cc1ccc(F)cc1Sc1cc(Cl)ccc1Cl: Yes
Cc1cc(=O)oc2cc(NC(=O)C(C)Oc3ccccc3)ccc12 (stereo not drawn): Yes
COc1ccc(S(=O)(=O)N[C@@H]2C=C[C@@H](CC(=O)N3CCc4ccccc4C3)O[C@@H]2CO)cc1: No

Data request: Just curious, what result did CC(C)CN1CCC1(C)C(=O)Nc1ccc(OC(F)F)cc1 (stereo not drawn) get here?
Data returned: No

Data request: Follow-up entry: `O=C(Nc1ccccc1)c1ccccc1OCc1ccccc1`
Data returned: No

Data request: Cool, now `Cc1ccc(C(=O)NC(=S)NCc2cccnc2)cc1`
Data returned: No

Data request: Try the compound Cc1cc(=O)oc2cc(OC(C)C(=O)Nc3ccc(N4CCOCC4)cc3)ccc12 (stereo not drawn)
Data returned: No

Data request: Next compound: Cc1ccc(C(=O)OC(C)CN2CCOCC2)cc1 (stereo not drawn)
Data returned: Yes

* * *

target: ATP-dependent Clp protease proteolytic subunit (Bacillus subtilis (strain 168)); experiment: qHTS Assay for Activators of ClpP; note: the source files actives as falling curves though it sought activators and does not explain the sign; nearly all actives have a fitted effect of over 65% in size; settings: purified B. subtilis ClpP, FRET peptide cleavage, 20 min; series mostly up to 57.5 µM
Screen size: about 340,000 compounds; about 6,400 (1.9%) were called active. Roughly 4% stayed inconclusive and do not appear here. Calls follow the shape of the dose curve; as a rule, active = well fitted falling curve with a large enough effect; inconclusive = small, poorly fitted or top-dose-only effect; inactive = no such curve, though single readings can be large or run the other way. This is one part of a sample in which actives are shown more often than they occur.
Answer with one of the outcomes given here: active, inactive

Solved entries (count: 5):
Cc1ccc2[nH]c3c(=O)n(Cc4ccccn4)cnc3c2c1: active
O=C(C=CC(=O)Nc1ccc(F)cc1F)Nc1ccc(F)cc1F: inactive
Cc1ccc(C)n1-c1nnc(N2CCC(C(=O)NCc3ccc(F)cc3)CC2)s1: inactive
COc1ccc(Cn2ccnc2SCC(=O)NCc2ccco2)cc1: inactive
COc1ccc2c(c1)c1ncn(Cc3ccccn3)c(=O)c1n2C: inactive

Next item in the queue.
Data request: Hi, do you know how `CC1(C)OC(=O)C2=C(C[C@@H](C3CCCC3)O[C@@H]2c2ccc(Cl)cc2)O1` came out in this test?
Data returned: inactive

* * *

target: ATP-dependent Clp protease proteolytic subunit (Bacillus subtilis (strain 168)); experiment: qHTS Assay for Activators of ClpP; note: the source files actives as falling curves though it sought activators and does not explain the sign; nearly all actives have a fitted effect of over 65% in size; settings: purified B. subtilis ClpP, FRET peptide cleavage, 20 min; series mostly up to 57.5 µM
Among all 340,000 compounds or so, about 6,400 (1.9%) were called active. Roughly 4% stayed inconclusive and do not appear here. Calls follow the shape of the dose curve; as a rule, active = well fitted falling curve with a large enough effect; inconclusive = small, poorly fitted or top-dose-only effect; inactive = no such curve, though single readings can be large or run the other way. The sample holds actives, similar compounds and a random draw of the others, so the mix is not that of the screen.
Respond with a class label; see label 1 = active, label 0 = inactive

NS(=O)(=O)c1ccc(NC(=O)COC(=O)c2c3c(nc4ccccc24)/C(=C\c2ccc4c(c2)OCO4)CCC3)cc1: label 0
O=C1/C(=C/c2ccc3c(c2)OCO3)CCC/C1=C\c1ccc2c(c1)OCO2: label 1

Data request: I would be grateful if you could indicate the recorded call for CC(c1ccco1)N(C(=O)COc1ccccc1[N+](=O)[O-])c1ccccn1 (stereo not given) .
Data returned: label 1

Data request: How about this molecule: CC(c1ccco1)N(C(=O)c1ccc(S(=O)(=O)N2CCCCC2)cc1)c1ccccn1 (stereo not given)
Data returned: label 0

Data request: And the next one, `COc1cc(/C=N/NC(=O)CNC(=O)c2ccncc2)ccc1OC(C)=O` ?
Data returned: label 0

Data request: Also `NC(=O)c1ccc(NC(=O)COC(=O)c2c3c(nc4ccccc24)/C(=C\c2ccc4c(c2)OCO4)CCC3)cc1` ?
Data returned: label 0

Data request: Try this molecule next: `COC(=O)c1sccc1NC(=O)CCC1CCCC1`
Data returned: label 0

meta.source: PubChem BioAssay AID651965
